Entry source: paper PMC6441007

Recorded melting point for the following molecules

molecule: CCCOC(=O)Nc1nc(=O)n([C@@H]2CS[C@H](COC(=O)OCCC)O2)cc1F [prodrug 3]
assay_endpoint: melting point
value_measured: 102 to 107 °C
--
molecule: CCCCCOC(=O)Nc1nc(=O)n([C@@H]2CS[C@H](CO)O2)cc1F [prodrug 13]
assay_endpoint: melting point
value_measured: 44 to 47 °C
--
molecule: CCCCOC(=O)Nc1nc(=O)n([C@@H]2CS[C@H](CO)O2)cc1F [prodrug 12]
assay_endpoint: melting point
value_measured: 47 °C
--
molecule: CCCOC(=O)Nc1nc(=O)n([C@@H]2CS[C@H](CO)O2)cc1F [prodrug 11]
assay_endpoint: melting point
value_measured: 82 to 86 °C
--
molecule: CCCCCCOC(=O)Nc1nc(=O)n([C@@H]2CS[C@H](COC(=O)OCCCCCC)O2)cc1F [prodrug 6]
assay_endpoint: melting point
value_measured: 110 °C

Tell me the measured melting point of CCCCCCCOC(=O)Nc1nc(=O)n([C@@H]2CS[C@H](CO)O2)cc1F [prodrug 15] , please.
46 °C

Param item: COC(=O)Nc1nc(=O)n([C@@H]2CS[C@H](CO)O2)cc1F [prodrug 9]
85 to 89 °C

Lookup CCCCCOC(=O)Nc1nc(=O)n([C@@H]2CS[C@H](COC(=O)OCCCCC)O2)cc1F [prodrug 5]
103 to 106 °C

Also CCCCCCOC(=O)Nc1nc(=O)n([C@@H]2CS[C@H](CO)O2)cc1F [prodrug 14] ?
46 to 49 °C

# iterate: COC(=O)Nc1nc(=O)n([C@@H]2CS[C@H](COC(=O)OC)O2)cc1F [prodrug 1]
97 to 103 °C
